- experimental.protocol: Metabolic stability in human hepatocytes assessed as extraction ratio at 1 uM
- Type: ADME, cell-based, Hepatocyte
- condition: read-out: ERH

# mol.smiles, hepatic extraction ratio at 1 µM
records = [
    ("CC(C)(C)OC(=O)N[C@H]1CCCCC/C=C\\[C@@H]2C[C@@]2(C(=O)NS(=O)(=O)C2CC2)NC(=O)[C@@H]2C[C@@H](OC(=O)N3Cc4ccccc4C3)CN2C1=O", 0.65),
    ("CC(C)(C)OC(=O)N[C@H]1CCCCC/C=C\\[C@@H]2C[C@@]2(C(=O)NS(=O)(=O)C2CC2)NC(=O)[C@@H]2C[C@@H](OC(=O)N3CCc4ccccc4C3)CN2C1=O", 0.49),
    ("CC(C)(C)OC(=O)N[C@H]1CCCCC/C=C\\[C@@H]2C[C@@]2(C(=O)NS(=O)(=O)C2CC2)NC(=O)[C@@H]2C[C@@H](OC(=O)N3Cc4cccc(F)c4C3)CN2C1=O", 0.58),
    ("CN(C)S(=O)(=O)NC(=O)[C@@]12C[C@H]1/C=C\\CCCCC[C@H](NC(=O)OC(C)(C)C)C(=O)N1C[C@H](OC(=O)N3Cc4ccccc4C3)C[C@H]1C(=O)N2", 0.56),
]

* * *

- Test system: Hepatitis C virus
- experimental.protocol: Antiviral activity against Hepatitis C virus genotype 3 infected in human HuH7 cells assessed as decrease in replicon RNA level after 2 days by TaqMan Gold RT-PCR analysis
- Assay type: functional, organism-based, Hepacivirus hominis
- condition: genotype 3, Huh-7, 48 h
pEC50: −log10 of the molar value.

# molecule, pEC50
rows = [
    ("CC(C)(C)OC(=O)N[C@H]1CCCCC/C=C\\[C@@H]2C[C@@]2(C(=O)NS(=O)(=O)C2CC2)NC(=O)[C@@H]2C[C@@H](OC(=O)N3Cc4cccc(F)c4C3)CN2C1=O [DANOPREVIR]", 7.70),
]

* * *

Recorded measurements of IC50, one per entry
- experimental.protocol: Inhibition of Hepatitis C virus full-length NS3/4A protease assessed as quenched-fluorogenic RET-S1 substrate cleavage incubated for 10 mins prior to substrate addition by FRET analysis
- Design: species or system Hepacivirus hominis

# mol.smiles, IC50, nM
data = [
    ("CC(C)(C)OC(=O)N[C@H]1CCCCC/C=C\\[C@@H]2C[C@@]2(C(=O)NS(=O)(=O)C2CC2)NC(=O)[C@@H]2C[C@@H](NC(=O)N3Cc4ccccc4C3)CN2C1=O", 2.3),
    ("CC(C)(C)OC(=O)N[C@H]1CCCCC/C=C\\[C@@H]2C[C@@]2(C(=O)O)NC(=O)[C@@H]2C[C@@H](OC(=O)N3Cc4c(Cl)ccc(Cl)c4C3)CN2C1=O", 21),
    ("CN1CCN(c2ccc3c(c2)CN(C(=O)O[C@@H]2C[C@H]4C(=O)N[C@]5(C(=O)NS(=O)(=O)C6CC6)C[C@H]5/C=C\\CCCCC[C@H](NC(=O)OC(C)(C)C)C(=O)N4C2)C3)CC1", 2),
]

* * *

- experimental.protocol: AUC (0 to 24 hrs) in Sprague-Dawley rat liver at 30 mg/kg, po by HPLC-MS/MS analysis
- Type: ADME, organism-based
- Set-up: time < 24 hr, dose 30 mg/kg, route oral
property.name: AUC(0-t) at 24 h (µg·h/mL)

# mol.smiles, obs.value
data = [
    ("CC(C)(C)OC(=O)N[C@H]1CCCCC/C=C\\[C@@H]2C[C@@]2(C(=O)NS(=O)(=O)C2CC2)NC(=O)[C@@H]2C[C@@H](OC(=O)N3Cc4ccccc4C3)CN2C1=O", 40.3),
    ("CC(C)(C)OC(=O)N[C@H]1CCCCC/C=C\\[C@@H]2C[C@@]2(C(=O)NS(=O)(=O)C2CC2)NC(=O)[C@@H]2C[C@@H](OC(=O)N3CCc4ccccc4C3)CN2C1=O", 276),
    ("CC(C)(C)OC(=O)N[C@H]1CCCCC/C=C\\[C@@H]2C[C@@]2(C(=O)NS(=O)(=O)C2CC2)NC(=O)[C@@H]2C[C@@H](OC(=O)N3Cc4cccc(F)c4C3)CN2C1=O", 90.8),
    ("CN(C)S(=O)(=O)NC(=O)[C@@]12C[C@H]1/C=C\\CCCCC[C@H](NC(=O)OC(C)(C)C)C(=O)N1C[C@H](OC(=O)N3Cc4ccccc4C3)C[C@H]1C(=O)N2", 136),
]

* * *

- experimental.protocol: Metabolic stability in cynomolgus monkey hepatocytes assessed as extraction ratio at 1 uM
- Format: ADME, cell-based, Macaca fascicularis, Hepatocyte
- condition: read-out: ERH
Recorded measurements of hepatic extraction ratio at 1 µM, one per entry

# mol.smiles, hepatic extraction ratio at 1 µM
measured = [
    ("CC(C)(C)OC(=O)N[C@H]1CCCCC/C=C\\[C@@H]2C[C@@]2(C(=O)NS(=O)(=O)C2CC2)NC(=O)[C@@H]2C[C@@H](OC(=O)N3CCc4ccccc4C3)CN2C1=O", 0.53),
    ("CN(C)S(=O)(=O)NC(=O)[C@@]12C[C@H]1/C=C\\CCCCC[C@H](NC(=O)OC(C)(C)C)C(=O)N1C[C@H](OC(=O)N3Cc4ccccc4C3)C[C@H]1C(=O)N2", 0.56),
    ("CC(C)(C)OC(=O)N[C@H]1CCCCC/C=C\\[C@@H]2C[C@@]2(C(=O)NS(=O)(=O)C2CC2)NC(=O)[C@@H]2C[C@@H](OC(=O)N3Cc4cccc(F)c4C3)CN2C1=O", 0.54),
    ("CC(C)(C)OC(=O)N[C@H]1CCCCC/C=C\\[C@@H]2C[C@@]2(C(=O)NS(=O)(=O)C2CC2)NC(=O)[C@@H]2C[C@@H](OC(=O)N3Cc4ccccc4C3)CN2C1=O", 0.28),
]

* * *

- experimental.protocol: Ratio of drug level in liver to plasma in Sprague-Dawley rat at 30 mg/kg, po by HPLC-MS/MS analysis
- Format: ADME, organism-based
- Design: dose 30 mg/kg, route oral
- condition: liver and plasma

# mol.smiles, Kp
records = [
    ("CC(C)(C)OC(=O)N[C@H]1CCCCC/C=C\\[C@@H]2C[C@@]2(C(=O)NS(=O)(=O)C2CC2)NC(=O)[C@@H]2C[C@@H](OC(=O)N3CCc4ccccc4C3)CN2C1=O", "> 1000"),
]

* * *

- experimental.protocol: Inhibition of Hepatitis C virus full-length NS3/4A protease assessed as quenched-fluorogenic RET-S1 substrate cleavage incubated for 10 mins prior to substrate addition by FRET analysis
- Design: species or system Hepacivirus hominis
*1 amine or outer side, *2 acyl side, *3 side chain or, on linkers, in order; H or OH if unused. Where a SMILES comes first, the peptide text is derived from it. Side-chain parts run from the residue outwards. [ ]: non-standard residue; d: D form. The star is where a group is joined. Tetrahydroisoquinolin(2-yl) = c1ccc2c(c1)CCN(*)C2; Ac3c(1R,2S-2-vinyl) = C=C[C@@H]1C[C@]1(N)C(=O)O; Hyp = O=C(O)[C@@H]1C[C@@H](O)CN1; Chg = N[C@H](C(=O)O)C1CCCCC1; X3 = c1ccc(C2CCN(*)C2)cc1; CO = O=C([*:1])[*:2]
Cut-off 2 nM on IC50: below means 1, at or above means -1.

# compound, assigned.category
records = [
    ("C=C[C@@H]1C[C@]1(NC(=O)[C@@H]1C[C@@H](OC(=O)N2CCC(c3ccccc3)C2)CN1C(=O)[C@@H](NC(=O)[C@@H](NC(C)=O)C1CCCCC1)C(C)C)C(=O)O (stereo partly drawn) (Ac-[Chg]V[Hyp]([CO-X3])[Ac3c(1R,2S-2-vinyl)]-OH)", -1),
    ("CC(C)(C)OC(=O)N[C@H]1CCCCC/C=C\\[C@@H]2C[C@@]2(C(=O)NS(=O)(=O)Nc2ccccc2)NC(=O)[C@@H]2C[C@@H](OC(=O)N3Cc4ccccc4C3)CN2C1=O", -1),
    ("C=C[C@@H]1C[C@]1(NC(=O)[C@@H]1C[C@@H](OC(=O)N2CCc3ccccc3C2)CN1C(=O)[C@@H](NC(=O)[C@@H](NC(C)=O)C1CCCCC1)C(C)C)C(=O)O (Ac-[Chg]V[Hyp]([CO-Tetrahydroisoquinolin(2-yl)])[Ac3c(1R,2S-2-vinyl)]-OH)", -1),
    ("CC(C)(C)OC(=O)N[C@H]1CCCCCCC[C@@H]2C[C@@]2(C(=O)NS(=O)(=O)C2CC2)NC(=O)[C@@H]2C[C@@H](OC(=O)N3Cc4cccc(F)c4C3)CN2C1=O", 1),
    ("CC(C)(C)OC(=O)N[C@H]1CCCCC/C=C\\[C@@H]2C[C@@]2(C(=O)NS(C)(=O)=O)NC(=O)[C@@H]2C[C@@H](OC(=O)N3Cc4ccccc4C3)CN2C1=O", -1),
    ("CC(C)(C)OC(=O)N[C@H]1CCCCC/C=C\\[C@@H]2C[C@@]2(C(=O)NS(=O)(=O)C2CC2)NC(=O)[C@@H]2C[C@@H](OC(=O)N3CCc4c(F)cccc4C3)CN2C1=O", 1),
    ("CC(C)S(=O)(=O)NC(=O)[C@@]12C[C@H]1/C=C\\CCCCC[C@H](NC(=O)OC(C)(C)C)C(=O)N1C[C@H](OC(=O)N3Cc4ccccc4C3)C[C@H]1C(=O)N2", -1),
    ("CC(C)(C)OC(=O)N[C@H]1CCCCC/C=C\\[C@@H]2C[C@@]2(C(=O)O)NC(=O)[C@@H]2C[C@@H](OC(=O)N3Cc4cccc(Cl)c4C3)CN2C1=O", -1),
    ("CC(C)(C)OC(=O)N[C@H]1CCCCC/C=C\\[C@@H]2C[C@@]2(C(=O)NS(=O)(=O)C2CC2)NC(=O)[C@@H]2C[C@@H](OC(=O)N3CCc4cccc(F)c4C3)CN2C1=O", 1),
    ("CC(C)(C)OC(=O)N[C@H]1CCCCC/C=C\\[C@@H]2C[C@@]2(C(=O)NS(=O)(=O)C2CC2)NC(=O)[C@@H]2C[C@@H](OC(=O)N3CCc4cccc(C(F)(F)F)c4C3)CN2C1=O", 1),
    ("O=C(N[C@H]1CCCCC/C=C\\[C@@H]2C[C@@]2(C(=O)NS(=O)(=O)C2CC2)NC(=O)[C@@H]2C[C@@H](OC(=O)N3CCc4ccccc4C3)CN2C1=O)OC1CCCC1", 1),
    ("CC(C)(C)OC(=O)N[C@H]1CCCCC/C=C\\[C@@H]2C[C@@]2(C(=O)NS(=O)(=O)C2CC2)NC(=O)[C@@H]2C[C@@H](OC(=O)N3Cc4ccccc4C(C)(C)C3)CN2C1=O", 1),
    ("CC(C)(C)OC(=O)N[C@H]1CCCCC/C=C\\[C@@H]2C[C@@]2(C(=O)NS(=O)(=O)C2CC2)NC(=O)[C@@H]2C[C@@H](NC(=O)c3cc4ccccc4s3)CN2C1=O", 1),
    ("CC(C)(C)OC(=O)N[C@H]1CCCCC/C=C\\[C@@H]2C[C@@]2(C(=O)NS(=O)(=O)C2(Cc3ccccc3)CC2)NC(=O)[C@@H]2C[C@@H](OC(=O)N3Cc4ccccc4C3)CN2C1=O", 1),
    ("CC(C)(C)OC(=O)N[C@H]1CCCCC/C=C\\[C@@H]2C[C@@]2(C(=O)NS(=O)(=O)C2CC2)NC(=O)[C@@H]2C[C@@H](O)CN2C1=O", -1),
    ("CC(C)(C)OC(=O)N[C@H]1CCCCC/C=C\\[C@@H]2C[C@@]2(C(=O)NS(=O)(=O)c2ccc(C#N)cc2)NC(=O)[C@@H]2C[C@@H](OC(=O)N3Cc4ccccc4C3)CN2C1=O", -1),
    ("O=C(N[C@H]1CCCCC/C=C\\[C@@H]2C[C@@]2(C(=O)NS(=O)(=O)C2CC2)NC(=O)[C@@H]2C[C@@H](OC(=O)N3Cc4ccccc4C3)CN2C1=O)O[C@@H]1CCOC1", -1),
    ("CC(C)(C)OC(=O)N[C@H]1CCCCC/C=C\\[C@@H]2C[C@@]2(C(=O)NS(=O)(=O)C2CC2)NC(=O)[C@@H]2C[C@@H](OC(=O)N3Cc4ccc(F)cc4C3)CN2C1=O", -1),
    ("CC(C)(C)OC(=O)N[C@H]1CCCCC/C=C\\[C@@H]2C[C@@]2(C(=O)NS(=O)(=O)C2CC2)NC(=O)[C@@H]2C[C@@H](OC(=O)N3Cc4cccc(Cl)c4C3)CN2C1=O", -1),
    ("COc1ccc(NS(=O)(=O)NC(=O)[C@@]23C[C@H]2/C=C\\CCCCC[C@H](NC(=O)OC(C)(C)C)C(=O)N2C[C@H](OC(=O)N4Cc5ccccc5C4)C[C@H]2C(=O)N3)cc1", -1),
]

The measurements presented in this section are drawn from ChEMBL document CHEMBL3120136.
